System: MCL-1ΔNΔC
test description: High-throughput competitive FP binding screen, FITC-MCL-1 SAHB/MCL-1ΔNΔC interaction
run conditions: selectivity for MCL-1ΔNΔC over BCL-XLΔC targeting (BCL-XL % Bound minus MCL-1 % Bound)
endpoint: Spec Values
One number for each entry.

Record excerpt, results attached:
Cc1ccccc1-c1nnc(SCC(=O)NC(=O)Nc2ccccc2F)n1C: 58.58
O=C(CSc1ncc(C(F)(F)F)cc1Cl)NC(=O)CN1CCCC1=O: 55.6
CC1=CC(=O)C(CCCC2=CC(=O)C=CC2=O)=CC1=O: 48.07
O=C1c2ccccc2-c2onc3ccc(Oc4c(F)c(F)c(F)c(F)c4F)c1c23: 45.97
O=c1oc2c(O)c(O)cc3c(=O)oc4c(O)c(O)cc1c4c23 [drawing 165]: 89.32

Now let's try a different one.
INPUT: What measured Spec Values goes with Oc1cccc(C(c2ccc3cccnc3c2O)N2CCCC2)c1 (stereo not drawn) ?
OUTPUT: 62.71

* * *

system: BCL-XLΔC (Homo sapiens, UniProt Q07817)
Sequence (Q07817 1-212 limits assumed, stated change not applied): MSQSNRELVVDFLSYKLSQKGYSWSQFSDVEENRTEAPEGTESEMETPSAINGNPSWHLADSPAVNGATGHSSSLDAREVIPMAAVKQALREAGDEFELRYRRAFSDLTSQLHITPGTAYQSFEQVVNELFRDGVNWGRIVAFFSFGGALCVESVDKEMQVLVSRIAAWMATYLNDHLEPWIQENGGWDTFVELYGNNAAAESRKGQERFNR
test description: High-throughput competitive FP binding screen, FITC-BAD BH3/BCL-XLΔC interaction
run conditions: FITC-BAD BH3/BCL-XLΔC interaction pair, competitive FP screen
For each entry below, report its BCL-XL % Bound value.
One number for each entry, in %.

CC1(C)CC(=O)C2=C(C1)Nc1ccc3ncccc3c1C2c1ccc(O)c(O)c1 (stereo not shown): 95.33

Dear reader, for each entry below, please note its BCL-XL % Bound.
1. Cc1cc(NC(=O)/C=C/c2ccco2)n(-c2nc3ccccc3n2Cc2cccc(Oc3ccccc3)c2)n1
2. CCN(CC)c1ccc2cc(C(N)=O)/c(=N\NC(=O)c3ccccc3)oc2c1
3. COc1cc(OC)c(C2=NOC(C(=O)Nc3cc(C)n(CC(=O)NCc4ccco4)n3)C2)cc1Cl (stereo not shown)

OUTPUT:
1: 104.4; 2: 129.3; 3: 83.62

* * *

For each entry below, report its Spec Values value.
Tested on: MCL-1ΔNΔC
test description: High-throughput competitive FP binding screen, FITC-MCL-1 SAHB/MCL-1ΔNΔC interaction
Numbers only.

Record excerpt, results attached:
N#C/C(=C\c1ccc(O)c(O)c1)C(N)=S [drawing 16]: 66.21
CC1=NOC(=O)/C1=C/c1ccc(-c2ccc(Cl)cc2)o1 [drawing 53]: 65.98

Dear reader, for each entry below, please note its Spec Values.
1. C=CCN1C(=O)/C(=C\c2ccc(OC)cc2)C(=O)NC1=S
2. CCOc1cc(C=C2C(=O)N(C)C(=S)N(C)C2=O)ccc1OC(C)C(=O)O (stereo not shown)

OUTPUT:
76
56.22

* * *

For each entry below, report its Spec Values value.
Test system: MCL-1ΔNΔC
test description: High-throughput competitive FP binding screen, FITC-MCL-1 SAHB/MCL-1ΔNΔC interaction
run conditions: selectivity for MCL-1ΔNΔC over BCL-XLΔC targeting (BCL-XL % Bound minus MCL-1 % Bound)
One number for each entry.

Dear reader, for each entry below, please note its Spec Values.
1. O=c1c(O)c(-c2cc(O)c(O)c(O)c2)oc2cc(O)cc(O)c12 [Myricetin, reference compound]
2. CC1CCN(C2=NN3C(=N)/C(=C\c4ccc(SCc5ccco5)o4)C(=O)N=C3S2)CC1
3. Cc1ccc2c(CC(=O)NCC(=O)OCc3ccccc3)coc2c1

OUTPUT:
1: 68.23; 2: 70.38; 3: 59.09

Dear reader, for each entry below, please note its Spec Values.
1. O=C1NC(=S)S/C1=C\c1ccc(-c2ccc(S(=O)(=O)N3CCOCC3)cc2)o1
2. CCN(CC)c1cc(C)c2cc(NC(=O)/C=C/c3ccco3)ccc2n1

OUTPUT:
69.33
68.15

INPUT: What measured Spec Values goes with "O=C1NC(=O)/C(=C/c2ccc(-c3ccc(S(=O)(=O)N4CCOCC4)cc3)o2)S1" ?
OUTPUT: 69.33

* * *

For each entry below, report its Spec Values value.
Test system: MCL-1ΔNΔC
test description: High-throughput competitive FP binding screen, FITC-MCL-1 SAHB/MCL-1ΔNΔC interaction
run conditions: selectivity for MCL-1ΔNΔC over BCL-XLΔC targeting (BCL-XL % Bound minus MCL-1 % Bound)
One number for each entry.

Record excerpt, results attached:
O=C(CSc1nnc(-c2ccco2)c(-c2ccco2)n1)N1c2ccccc2Sc2ccc(Cl)cc21: 60.7
Cc1nn(C)c2nc(NNC(=O)c3cccc(C(F)(F)F)c3)ccc12: 50.23
N#C/C(=C/c1cn(Cc2ccc(C(=O)O)o2)c2ccccc12)c1ccc(F)cc1: 60.36
Cc1oc(-c2cccc(C(F)(F)F)c2)cc1C(=O)O: 48.68
COc1ccc(-n2nc3cc(C)c(N)c(Br)c3n2)cc1: 51.41

Now let's try a different one.
INPUT: What measured Spec Values goes with "CC1=C(C#N)C(=O)N(CCc2ccccc2)C(=O)/C1=C\c1ccc(-c2cccc(Cl)c2)o1" ?
OUTPUT: 49.43

* * *

For each entry below, report its BCL-XL % Bound value.
system: BCL-XLΔC (Homo sapiens, UniProt Q07817)
test description: High-throughput competitive FP binding screen, FITC-BAD BH3/BCL-XLΔC interaction
run conditions: FITC-BAD BH3/BCL-XLΔC interaction pair, competitive FP screen
Give bare numbers, in %.

O=c1c(O)c(-c2ccc(O)c(O)c2)oc2cc(O)cc(O)c12 [drawing 167]: 105.3

Dear reader, for each entry below, please note its BCL-XL % Bound.
1. CCc1cccc(NC(=O)/C=C/c2ccco2)c1
2. CC1=C(C#N)C(=O)N(CCc2ccccc2)C(=O)/C1=C/c1ccc(-c2ccc3c(c2)COC3=O)o1
3. Cc1ccc(C2=NC(=O)/C(=C/c3cc(O)c(O)c(Br)c3)S2)cc1

OUTPUT:
80.4
84.79
96.59

* * *

system: MCL-1ΔNΔC (Homo sapiens, UniProt Q07820)
Sequence (Q07820 172-320 limits assumed, stated change not applied): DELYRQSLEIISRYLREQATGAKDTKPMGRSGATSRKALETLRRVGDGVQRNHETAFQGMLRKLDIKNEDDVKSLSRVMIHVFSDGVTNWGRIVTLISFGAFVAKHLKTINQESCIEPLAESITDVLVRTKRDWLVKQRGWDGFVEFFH
test description: High-throughput competitive FP binding screen, FITC-MCL-1 SAHB/MCL-1ΔNΔC interaction
Design: the C-terminal alpha-helix was deleted from each of these constructs; GST (N, cleaved yes); made in house
run conditions: FITC-MCL-1 SAHB/MCL-1ΔNΔC interaction pair, competitive FP screen
Quick rule for you: MCL-1% Bound under 40% gets Satisfied, anything else gets Not satisfied.

Worked cases, answers included:
CC1(C)CC(=O)C(=Cc2cn(-c3ccccc3)nc2-c2cccs2)C(=O)C1: Not satisfied
O=C1C=CC(=O)C(Sc2nnnn2-c2ccccc2)=C1: Not satisfied
COc1ccc(/C=c2\s/c(=C\C(=O)c3ccco3)[nH]c2=O)cc1O: Not satisfied
C=CCSc1nnc(-c2ccc(C(C)(C)C)cc2)n1Cc1ccco1: Not satisfied
CCOc1ccc(NC(=O)CC2C(=O)N(Cc3ccco3)C(=S)N2CCNC(C)=O)cc1 (stereo not shown): Satisfied

INPUT: Bench note: check whether "COc1cc2c(O)c3c(c(-c4ccc5c(c4)OCO5)c2cc1OC)C(=O)OC3" shows MCL-1% Bound below 40%
OUTPUT: Satisfied

INPUT: Bench note: check whether "O=C1CSCC(=O)N1c1cc(C(F)(F)F)cc(C(F)(F)F)c1" shows MCL-1% Bound below 40%
OUTPUT: Not satisfied

INPUT: Bench note: check whether "CC(C)CSC1=NSC2=NC(=O)/C(=C\c3ccc(SCc4ccco4)o3)C(=N)N12" shows MCL-1% Bound below 40%
OUTPUT: Satisfied

INPUT: Bench note: check whether CCOC(=O)C(C)Oc1cccc2c(=O)n(CC(=O)Nc3ccc4c(c3)CCCO4)ccc12 (stereo not shown) shows MCL-1% Bound below 40%
OUTPUT: Satisfied

INPUT: Bench note: check whether "C/N=c1\scc(-c2c[nH]c3ccccc23)n1C" shows MCL-1% Bound below 40%
OUTPUT: Satisfied

* * *

system: MCL-1ΔNΔC (Homo sapiens)
test description: High-throughput competitive FP binding screen, FITC-MCL-1 SAHB/MCL-1ΔNΔC interaction
Set-up: the C-terminal alpha-helix was deleted from each of these constructs; GST (N, cleaved yes); made in house
run conditions: FITC-MCL-1 SAHB/MCL-1ΔNΔC interaction pair, competitive FP screen
For each entry below, report its MCL-1% Bound value.
Give bare numbers, in %.

Record excerpt, results attached:
Cc1nc(COC(=O)c2cc(O)c3ccccc3c2O)cs1: 39.52
CCOc1ccc2c(c1)C(C)=CC(C)(C)N2C(=O)CSc1nnc(C2CC2)n1C: 40.13

INPUT: Kindly state the measured MCL-1% Bound obtained for "O=C1COc2ccc(-c3cs/c(=N\c4ccc(F)cc4)n3/N=C/c3ccc(O)c(O)c3)cc2N1" with MCL-1ΔNΔC (Homo sapiens).
OUTPUT: 39.12
